- tested on: human CYP11B2 (Homo sapiens)
- Construct: expressed in transfected cells
- run description: G-402 cellular enzyme assay, human CYP11B2 (aldosterone release, HTRF)
- Type: cell-based
- measurement conditions: G-402 cells expressing human CYP11B2; 1 μM Deoxycorticosterone
Could you please report measured log10(EC50) for the items listed next?
In plain terms, each number is the log10 of measured EC50 in nM.

[ask] Could you tell me which log10(EC50) is on file for `Cc1nc(C(=O)NCc2cncc(-c3ccc4c(c3)CCC(=O)N4C)c2)c(C)o1` ?
[reply] 0.60

[ask] Query: log10(EC50); subject: `CN(Cc1cncc(-c2ccc3c(c2)CCC(=O)N3C)c1Cl)C(=O)c1ncccc1Cl`
[reply] 0.95

[ask] Query: log10(EC50); subject: `CN1C(=O)CCc2cc(-c3cncc(CNC(=O)CC(F)(F)F)c3)ccc21`
[reply] 2.08

[ask] Consider the molecule shown here: `CN1C(=O)CCc2cc(-c3cncc(OCCNC(=O)OC(C)(C)C)c3)ccc21` What is its recorded log10(EC50)?
[reply] 1.00

[ask] # get_value(readout='log10(EC50)', item= `CN1C(=O)CCc2cc(-c3cncc(OCCNC(=O)OC(C)(C)C)c3)c(F)cc21` )
[reply] 0.00

[ask] Give the measured log10(EC50) of `Cc1noc(C)c1C(=O)NCc1cncc(-c2cc3c(cc2F)N(C)C(=O)CC3)c1` .
[reply] 1.08

[ask] Item under review: `COC[C@@H]1CCCN1Cc1cncc(-c2ccc3c(c2)CCC(=O)N3C)c1` . Reported log10(EC50)?
[reply] 1.32

[ask] Item under review: `CCS(=O)(=O)NCc1cncc(-c2ccc3c(c2)CCC(=O)N3C)c1Cl` . Reported log10(EC50)?
[reply] 1.34

----------
- tested on: human CYP11B2 (Homo sapiens)
- Sequence (P19099 25-503): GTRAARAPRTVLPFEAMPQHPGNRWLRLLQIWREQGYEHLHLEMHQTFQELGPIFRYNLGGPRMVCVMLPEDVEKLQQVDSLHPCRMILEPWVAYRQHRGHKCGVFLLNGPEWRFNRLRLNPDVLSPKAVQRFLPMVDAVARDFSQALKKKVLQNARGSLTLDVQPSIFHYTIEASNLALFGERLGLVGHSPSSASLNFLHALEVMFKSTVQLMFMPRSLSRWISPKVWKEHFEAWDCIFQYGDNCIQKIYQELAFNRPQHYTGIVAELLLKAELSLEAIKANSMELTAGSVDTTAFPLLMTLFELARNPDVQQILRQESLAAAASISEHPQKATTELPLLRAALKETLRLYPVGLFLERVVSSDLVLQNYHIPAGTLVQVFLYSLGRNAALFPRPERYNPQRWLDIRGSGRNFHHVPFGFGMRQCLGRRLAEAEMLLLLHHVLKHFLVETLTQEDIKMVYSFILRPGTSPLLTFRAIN
- run description: G-402 cellular enzyme assay, human CYP11B2 (aldosterone release, HTRF)
- measurement conditions: G-402 cells expressing human CYP11B2; 1 μM Deoxycorticosterone
- Text: Herein we identified the use of the G-402 cell line as a host cell to ectopically express (transiently or stably) enzymes of the CYP11 family. […] Importantly the identified cell line G-402 expresses co-factors (adrenodoxin and adrenodoxin reductase) important for the activity of the CYP11 family and no relevant enzyme activity of the CYP11 family (in comparison to H295R cells) was detected in these cells. […]
So I've got a bunch of compounds here, and I need their pEC50 values.
Formally, pEC50 is defined as -log10 of the concentration c, with c in mol/L.

[ask] Tell me the measured pEC50 of `CCOC(=O)N1CC[C@H](Oc2cncc(-c3ccc4c(c3)CCC(=O)N4C)c2)C1` , please.
[reply] 8.10

[ask] I'd like to know its pEC50. The compound in question is `CN1C(=O)CCc2cc(-c3cncc(CNC(=O)c4cc(Cl)nnc4Cl)c3)ccc21`
[reply] 7.77

[ask] Data request, read-out pEC50, for `CN1C(=O)CCc2cc(-c3cncc(O[C@@H]4CCN(C(=O)OC(C)(C)C)C4)c3)c(F)cc21`
[reply] 8.30

[ask] Which pEC50 is reported for this compound? `CN(Cc1cncc(-c2cc3c(cc2F)N(C)C(=O)CC3)c1)C(=O)c1ncccc1Cl`
[reply] 9.00

----------
- tested on: human CYP11B1 (Homo sapiens)
- Sequence (P15538 25-503): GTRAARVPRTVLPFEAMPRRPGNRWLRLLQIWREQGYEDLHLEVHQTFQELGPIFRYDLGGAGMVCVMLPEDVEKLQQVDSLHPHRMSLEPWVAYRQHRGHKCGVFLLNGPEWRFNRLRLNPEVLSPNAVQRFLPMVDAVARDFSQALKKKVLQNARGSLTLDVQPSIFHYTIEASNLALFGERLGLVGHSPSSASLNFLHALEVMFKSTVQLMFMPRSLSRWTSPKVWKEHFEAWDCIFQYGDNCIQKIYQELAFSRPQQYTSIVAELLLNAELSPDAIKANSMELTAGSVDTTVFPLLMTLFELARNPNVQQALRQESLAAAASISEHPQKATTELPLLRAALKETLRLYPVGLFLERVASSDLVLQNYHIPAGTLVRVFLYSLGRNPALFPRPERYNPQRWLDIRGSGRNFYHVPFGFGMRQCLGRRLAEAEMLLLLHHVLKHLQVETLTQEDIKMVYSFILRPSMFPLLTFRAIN
- run description: G-402 cellular enzyme assay, human CYP11B1 (cortisol release, HTRF)
- measurement conditions: G-402 cells expressing human CYP11B1; 1 μM Deoxycortisol
Counter-ions that a name gives are not always drawn.
What pEC50 was measured for each of the following?
Friendly reminder that pEC50 comes from taking -log10 of the concentration in mol/L.

[ask] What value of measured pEC50 is listed for `CN1C(=O)CCc2cc(-c3cncc(CNC(=O)c4cnc(C(F)(F)F)cn4)c3)ccc21` ?
[reply] 6.19

[ask] What measured pEC50 goes with `CCC(=O)N1CC[C@H]1COc1cncc(-c2ccc3c(c2)CCC(=O)N3C)c1` ?
[reply] 5.87

[ask] Can you look up the measured pEC50 of `CN1C(=O)CCc2cc(-c3cncc(O[C@H]4CCN(C(=O)OC(C)(C)C)C4)c3)c(F)cc21` for me?
[reply] 6.86

[ask] Could you share which pEC50 value was measured for `Cc1cccnc1C(=O)NCc1cncc(-c2ccc3c(c2)CCC(=O)N3C)c1` ?
[reply] 7.85

[ask] // returns reported pEC50 for input `CN1C(=O)CCc2cc(-c3cncc(N4CC5(CN(C(=O)OC(C)(C)C)C5)C4)n3)ccc21`
[reply] 6.11

[ask] What measured pEC50 goes with `Cc1cc(C(=O)NCc2cncc(-c3ccc4c(c3)CCC(=O)N4C)c2)c(Cl)nn1` ?
[reply] 5.59

[ask] Which pEC50 reading was recorded for the compound `CCC(=O)N(C)CCOc1cncc(-c2ccc3c(c2)CCC(=O)N3C)c1` ?
[reply] 7.21

[ask] What pEC50 value was documented for this compound, CCC(=O)NC(C)c1cncc(-c2ccc3c(c2)CCC(=O)N3C)c1C (single isomer, unassigned) ?
[reply] 6.21

[ask] Which pEC50 reading was recorded for the compound `CCC(=O)N1CC[C@@H](Oc2cncc(-c3cc4c(cc3F)N(C)C(=O)CC4)c2)C1` ?
[reply] 6.08

[ask] What pEC50 value was documented for this compound, `CN1C(=O)CCc2cc(-c3cncc(O[C@H]4CCCNC4)c3)ccc21` ?
[reply] 4.70

[ask] Quick check: pEC50 of `CN1C(=O)CCc2cc(-c3cncc(CNC(=O)c4cnoc4C4CC4)c3)ccc21` ?
[reply] 7.36

[ask] // returns reported pEC50 for input `COC[C@@H]1CCCN1Cc1cncc(-c2ccc3c(c2)CCC(=O)N3C)c1`
[reply] 6.59

[ask] Look at this compound and give its reported pEC50. `CN1C(=O)CCc2cc(-c3cncc(C4(N)CC4)c3)ccc21`
[reply] 6.15

[ask] Need pEC50 of `CN1C(=O)CCc2cc(-c3cncc(CN4CCCCS4(=O)=O)c3)ccc21` , thanks.
[reply] 6.25

[ask] Field request: pEC50 | item: `CN1C(=O)CCc2cc(-c3cncc(CNC(=O)C(C)(C)O)c3)ccc21`
[reply] 6.52

[ask] Need pEC50, item `CN(Cc1cncc(-c2ccc3c(c2)CCC(=O)N3C)c1Cl)C(=O)c1ncccc1Cl`
[reply] 6.45

[ask] So what does the record say about pEC50 for `CCC(=O)NCc1cncc(-c2ccc3c(c2)CCC(=O)N3C)c1Cl` ?
[reply] 6.21

[ask] Looking for the measured pEC50 of `CN1C(=O)CCc2cc(-c3cncc(O[C@@H]4CCN(C(=O)OC(C)(C)C)C4)c3)c(F)cc21` , can you help?
[reply] 6.53

[ask] Requested read-out: pEC50. Entry: `CCC(=O)NCc1cncc(-c2cc3c(cc2F)N(C)C(=O)CC3)c1`
[reply] 5.32

[ask] Entry Cc1c(-c2cc3c(cc2F)N(C)C(=O)CC3)cncc1C(C)N[S@+]([O-])C(C)(C)C (single isomer, unassigned) : reported pEC50 = ?
[reply] 6.33

[ask] // query pEC50 value for entry `Cc1ocnc1C(=O)NCc1cncc(-c2ccc3c(c2)CCC(=O)N3C)c1`
[reply] 6.82

[ask] Quick one: pEC50 of `COc1ncc(C(=O)NCc2cncc(-c3ccc4c(c3)CCC(=O)N4C)c2)cn1` ?
[reply] 7.70

[ask] Which pEC50 is listed for CN1C(=O)CCc2cc(-c3cncc(OC4CNC4)c3)ccc21 [Example 70, hydrochloride] ?
[reply] 4.81

[ask] GET /values?readout=pEC50&item= `CCS(=O)(=O)N(C)Cc1cncc(-c2ccc3c(c2)CCC(=O)N3C)c1`
[reply] 6.52

[ask] Return reported pEC50; argument: `CN1C(=O)CCc2cc(-c3cncc(N4CCC[C@H]4Cn4cncn4)c3)ccc21`
[reply] 6.39

[ask] Entry Cc1noc(C)c1C(=O)NC(C)c1cncc(-c2ccc3c(c2)CCC(=O)N3C)c1Cl (single isomer, unassigned) has what pEC50?
[reply] 6.17

[ask] What measured pEC50 goes with `CCS(=O)(=O)NCCOc1cncc(-c2cc3c(cc2F)N(C)C(=O)CC3)c1` ?
[reply] 7.59

[ask] Form field: reported pEC50 of `CN1C(=O)CCc2cc(-c3cncc(CNC(=O)c4ncoc4C4CC4)c3)ccc21`
[reply] 6.73

[ask] Looking for the measured pEC50 of `CC(C)(C)OC(=O)N1CC[C@H](Oc2cncc(-c3ccc4c(c3)CCC(=O)N4)c2)C1` , can you help?
[reply] 6.98

[ask] Consider the compound shown here: CCS(=O)(=O)N(C)C(C)c1cncc(-c2ccc3c(c2)CCC(=O)N3C)c1 (racemic) What is its recorded pEC50?
[reply] 6.70

[ask] I'd like to know its pEC50. The compound in question is `CN1C(=O)CCc2cc(-c3cncc(O[C@H]4CCN(C(=O)c5cnn(C)c5)C4)c3)ccc21`
[reply] 5.88

[ask] Given the compound `CC(C)CC(=O)NCc1cncc(-c2ccc3c(c2)CCC(=O)N3C)c1` , what is its reported pEC50?
[reply] 6.65

[ask] Please give the measured pEC50 for this compound: `CN1C(=O)CCc2cc(-c3cncc(OC[C@@H]4CCN4C(=O)C4CC4)c3)ccc21`
[reply] 5.51
